# ASSAY TARGET: T1, recombinant human soluble gpNMB (recombinant human gpNMB-FLAG-His) (human, UniProt Q14956 23-498)
# T1 sequence: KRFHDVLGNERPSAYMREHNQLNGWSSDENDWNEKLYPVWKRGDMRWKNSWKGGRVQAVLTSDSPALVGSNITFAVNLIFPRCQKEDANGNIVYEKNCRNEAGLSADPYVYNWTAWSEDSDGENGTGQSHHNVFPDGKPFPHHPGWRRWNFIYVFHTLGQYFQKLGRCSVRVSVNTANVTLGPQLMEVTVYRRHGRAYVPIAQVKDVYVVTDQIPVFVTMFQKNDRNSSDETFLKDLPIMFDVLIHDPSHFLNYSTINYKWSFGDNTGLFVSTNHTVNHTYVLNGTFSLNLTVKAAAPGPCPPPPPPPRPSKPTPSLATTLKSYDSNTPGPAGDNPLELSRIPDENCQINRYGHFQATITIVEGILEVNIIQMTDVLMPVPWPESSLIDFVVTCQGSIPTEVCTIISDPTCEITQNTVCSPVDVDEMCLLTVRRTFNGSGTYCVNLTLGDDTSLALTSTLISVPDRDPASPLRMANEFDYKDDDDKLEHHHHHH
# TEST NAME: SPR single-cycle kinetics, antibody over captured gpNMB-FLAG-His, 36C, mean of 2
ASSAY READOUT: pKd
In simple prose, pKd is minus the logarithm base ten of a concentration in moles per litre.

Example entries and their recorded answers appear below.
hGPN18-5_H3L3 (antibody, V domains shown, humanized; also called hGPN18-5_VH3+VL3) VH: QVQLVQSGAEVKKPGASVKVSCKASGYTFTTYWMNWVRQAPGQGLEWIGAINPSNDYTEYNQKFKDRAIMTADKSTSTVYMELSSLRSEDTAVYYCGRSYSPDYWGQGTTVTVSS VL: DIQMTQSPSSLSASVGDRVTITCKASQNVDNHVAWHQQKPGKAPKALIYSASYRYSGVPDRFTGSGSGTDFTLTISSLQPEDFADYFCQQYKSYPFTFGGGTKLEIK | 8.16
hGPN18-5_H3L1 (antibody, V domains shown, humanized; also called hGPN18-5 VH3+VL1) VH: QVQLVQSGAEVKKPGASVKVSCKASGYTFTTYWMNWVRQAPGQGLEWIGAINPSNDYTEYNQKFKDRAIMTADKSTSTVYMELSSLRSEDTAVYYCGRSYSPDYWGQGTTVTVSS VL: DIQMTQSPSSLSASVGDRVTITCKASQNVDNHVAWFQQKPGKAPKALIYSASYRYSGVPSRFSGSGSGTDFTLTISSLQPEDFATYFCQQYKSYPFTFGGGTKLEIK | 7.95

Input: Name the reported pKd value associated with the binder hGPN18-5_H1L1 (antibody, V domains shown, humanized; also called hGPN18-5_VH1+VL1) VH: QVQLVQSGAEVKKPGASVKVSCKASGYTFTTYWMNWVRQAPGQGLEWIGAINPSNDYTEYNQKFKDRVTMTADTSTSTVYMELSSLRSEDTAVYYCGRSYSPDYWGQGTTVTVSS VL: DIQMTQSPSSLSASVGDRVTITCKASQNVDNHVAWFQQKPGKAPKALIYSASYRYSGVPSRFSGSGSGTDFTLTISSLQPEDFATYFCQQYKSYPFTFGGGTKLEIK
Output: 7.79

Input: Now the binder hGPN18-5_H0L0 (antibody, V domains shown, chimeric antibody with mouse GPN18-5 variable regions (VH0, VL0); also called hGPN18-5_VH0+VL0; HGPN18-5_VH0+VL0) VH: QVQLQQSGAELAKPGTSVKMSCKASGYTFTTYWMNWVKQRPGQDLEWIGAINPSNDYTEYNQKFKDKAILTADKSSNTAYMQLSSLTSEDSAVYYCGRSYSPDYWGQGTTLTVSS VL: DIVMTQSQKFMSTSVGDRVSVTCKASQNVDNHVAWHQQKPGQSPKALIYSASYRYSGVPDRFTGSGSGTDFTLTIRDVQSEDLADYFCQQYKSYPFTFGSGTELEIK
Output: 8.51
